# Ki against Carbonic anhydrase 5A, mitochondrial (Homo sapiens), merged from multiple literature sources
# Sequence (P35218 whole entry): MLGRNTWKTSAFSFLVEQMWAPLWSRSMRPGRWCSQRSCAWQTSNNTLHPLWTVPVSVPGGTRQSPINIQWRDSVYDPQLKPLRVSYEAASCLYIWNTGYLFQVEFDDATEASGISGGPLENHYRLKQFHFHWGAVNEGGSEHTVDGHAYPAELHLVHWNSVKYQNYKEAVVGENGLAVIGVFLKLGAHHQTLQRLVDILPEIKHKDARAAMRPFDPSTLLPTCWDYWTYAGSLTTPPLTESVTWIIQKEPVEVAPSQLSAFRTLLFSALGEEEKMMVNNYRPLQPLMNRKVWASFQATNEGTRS
Experimental Endpoint: Ki (µM)

{"Compound": "O=C1C=CC[C@H](C[C@@H](O)CCc2ccc(O)cc2O)O1", "Censoring Sign": "=", "Endpoint Value": 21.6}
{"Compound": "NS(=O)(=O)c1ccc(-n2cc(-c3ccc(F)cc3)nn2)cc1", "Censoring Sign": "=", "Endpoint Value": 0.0142}
{"Compound": "Oc1ccc(C=Cc2cc(O)cc(O)c2)cc1 (mixture of isomers)", "Censoring Sign": "=", "Endpoint Value": 2.86}
{"Compound": "COc1ccc2ccc(=O)oc2c1", "Censoring Sign": ">", "Endpoint Value": 500}
{"Compound": "CC(C)(C)OC(=O)N(CCNC(=O)C(F)(F)F)CCN(CCNC(=O)C(F)(F)F)C(=O)OC(C)(C)C", "Censoring Sign": ">", "Endpoint Value": 500}
{"Compound": "Nc1ccc(S(N)(=O)=O)cc1F", "Censoring Sign": "=", "Endpoint Value": 9.3}
{"Compound": "COc1ccc(CCNS(N)(=O)=O)cc1OC", "Censoring Sign": "=", "Endpoint Value": 2.28}
{"Compound": "NCCCCCCN", "Censoring Sign": "=", "Endpoint Value": 0.61}
{"Compound": "NS(=O)(=O)c1ccc(CCNC(=O)CN2C(=O)NC3(CCCC3)C2=O)cc1", "Censoring Sign": "=", "Endpoint Value": 3.94}
{"Compound": "NNc1ccc(S(N)(=O)=O)cc1", "Censoring Sign": "=", "Endpoint Value": 7.7}
{"Compound": "CC(=O)OC[C@H]1O[C@@H]([Se]c2ccc(S(N)(=O)=O)cc2)[C@H](OC(C)=O)[C@@H](OC(C)=O)[C@H]1OC(C)=O", "Censoring Sign": "=", "Endpoint Value": 0.0872}
